tested-system: mouse FGFR2b on cells (mouse) (UniProt P21803)
procedure-text: flow cytometry, Expi293 cells overexpressing mouse FGFR2b
The entries below are paired with their reported EC50.

Reference set (3 entries):
binder	readout-name	observed-measurement
BGAh9179 (antibody, human IgG1, kappa, V domains shown) VH: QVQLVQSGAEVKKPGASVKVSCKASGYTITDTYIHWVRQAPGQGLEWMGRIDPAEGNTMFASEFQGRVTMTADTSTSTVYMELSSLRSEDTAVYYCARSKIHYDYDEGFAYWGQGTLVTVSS VL: DIVLTQSPDSLAVSLGERATINCRASESVDDYGYSFLHWYQQKPGQPPKLLIYRASNLESGVPDRFSGSGSGTDFTLTISSLQAEDVAVYYCQQSNQNPRTFGGGTKVEIKR	EC50	4.25 nM
BGAm1823 (antibody, V domains shown) VH: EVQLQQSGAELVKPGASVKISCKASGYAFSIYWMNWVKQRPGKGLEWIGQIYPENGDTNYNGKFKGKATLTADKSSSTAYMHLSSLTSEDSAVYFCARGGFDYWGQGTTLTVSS VL: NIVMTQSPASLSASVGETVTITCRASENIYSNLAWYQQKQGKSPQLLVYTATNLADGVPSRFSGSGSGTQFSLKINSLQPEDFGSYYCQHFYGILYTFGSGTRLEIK	EC50	3.37 nM
BGAm1371 (antibody, V domains shown) VH: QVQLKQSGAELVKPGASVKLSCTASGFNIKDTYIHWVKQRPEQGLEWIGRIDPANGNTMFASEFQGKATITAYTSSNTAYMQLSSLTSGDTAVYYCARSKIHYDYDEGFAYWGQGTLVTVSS VL: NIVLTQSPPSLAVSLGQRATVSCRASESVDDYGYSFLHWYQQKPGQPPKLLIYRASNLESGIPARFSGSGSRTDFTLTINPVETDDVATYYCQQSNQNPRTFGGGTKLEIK	EC50	3.5 nM

# get_value(readout='EC50', item= BGAh9239 (antibody, human IgG1, kappa, V domains shown) VH: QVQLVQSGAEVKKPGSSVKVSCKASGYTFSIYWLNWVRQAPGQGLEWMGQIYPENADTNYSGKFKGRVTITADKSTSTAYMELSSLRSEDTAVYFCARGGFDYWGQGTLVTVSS VL: DIQMTQSPSSLSASVGDRVTITCRASENIYSNLAWYQQKPGKAPKLLIYTATNLAEGVPSRFSGSGSGTDFTLTISSLQPEDFATYYCQHFYGILYTFGQGTRLEIKR )
2.67 nM
